Target: hA3 AR (Homo sapiens)
Sequence (P0DMS8 whole entry): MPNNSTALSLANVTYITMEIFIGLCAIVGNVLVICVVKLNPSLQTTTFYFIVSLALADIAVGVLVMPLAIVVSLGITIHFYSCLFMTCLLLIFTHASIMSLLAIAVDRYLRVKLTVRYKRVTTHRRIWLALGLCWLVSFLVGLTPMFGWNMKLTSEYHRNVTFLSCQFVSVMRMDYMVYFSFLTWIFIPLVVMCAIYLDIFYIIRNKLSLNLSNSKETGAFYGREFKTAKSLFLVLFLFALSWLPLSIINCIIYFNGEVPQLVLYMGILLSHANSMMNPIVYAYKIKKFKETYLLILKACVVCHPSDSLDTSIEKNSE
Assay: Radioligand competition binding assay at hA3 AR
Design: expressed in transfected cells; host or cells: Hela-A3 cell line
Details: 10 μM compound; [3H]NECA; 10 µM
Parameter: Percentage Inhibition (%) at 10 μM, hA3 AR

>  <Molecule>
COc1ccc(Nc2nc(N)nc(-c3ccc(F)cc3)n2)cc1F [Compound 11b]

>  <Measured>
95

$$$$
>  <Molecule>
Nc1nc(Nc2cccc(C(F)(F)F)c2)nc(-c2ccc(O)cc2)n1

>  <Measured>
95

$$$$
>  <Molecule>
COc1cc(Nc2nc(N)nc(-c3ccc(O)cc3)n2)ccc1Cl

>  <Measured>
95

$$$$
>  <Molecule>
COc1ccc(Nc2nc(N)nc(-c3ccc(O)cc3)n2)cc1F

>  <Measured>
97

$$$$
>  <Molecule>
COc1ccc(-c2nc(N)nc(Nc3ccc(OC)c(F)c3)n2)cc1 [Compound 11a]

>  <Measured>
97

$$$$
